Reference source: patent US20080160035A1

Target: T1, dimeric hIL-4R-hFc (human, UniProt P24394 26-232)
T1 construct: also called hIL-4R-Fc; not shown: human Fc (hFc)
T1 sequence: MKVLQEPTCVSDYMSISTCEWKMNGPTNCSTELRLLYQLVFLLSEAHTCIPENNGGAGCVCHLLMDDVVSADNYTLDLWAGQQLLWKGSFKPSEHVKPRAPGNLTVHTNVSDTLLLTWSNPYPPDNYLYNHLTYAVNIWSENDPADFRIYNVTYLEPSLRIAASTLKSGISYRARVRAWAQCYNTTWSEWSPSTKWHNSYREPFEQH
Test: SPR (BIAcore 2000); antibody captured, dimeric hIL-4R-hFc injected
experimentalReadout: T1/2 dimeric (h)
Give just the number in h; leave the unit off.

Entry VX 4E7-9 (antibody, V domains shown, 387/389; Apparently tested with mouse constant region (anti-mouse IgG capture/detection)) VH: QVQLVQSGAEVKKPGASVKVSCKASGYTFTNYGISWVRQAPGQGLEWMGWISVYNGKTNYAQKLQGRVTMTTDTSTTTAYMEMRSLRSDDTAVYYCARGSGYDLDYWGQGTLVSVSS VL: AIQMTQSPSSLSASVGDRVTITCRASQGIRNALGWYQQKPGKAPKLLIYAASSLQSGVPSRFSGSGSGTDFTLTFSSLQPEDFATYYCLQDFNYPYTFGQGTKLEIK has what T1/2 dimeric?
19.1

Entry VAK10G6-7 (antibody, V domains shown, Apparently tested with mouse constant region (anti-mouse IgG capture/detection)) VH: QVQLVESGGGVVQPGRSLRLSCTASGFTFSSFGMHWVRQAPGRGLEWVAVISYDGSKKYYADSVKVRFTISRDNSKNTLYLQMNSLRVDDTAVYFCAKEGRTGNWFDPWGQGTLVAVSS VL: DIQMTQSPSSLSASVGDRVTITCRASQAINNYLAWFQQKPGKTPKSLIFATSSLQSGVPSRFSGTGSGTDFTLTISSLQPEDFATYYCQQYNSHPWTFGQGTKVEIR has what T1/2 dimeric?
24

Entry VAB 8G10-1 (antibody, V domains shown, Apparently tested with mouse constant region (anti-mouse IgG capture/detection)) VH: QVQLVQSGPEVKKPGASVKVSCKASGYTFTNYGISWVRQAPGQGLEWMGWISVYNGNINYAQKLQGRVTMTTDTSTSTAYMDLRSLRSDDTAVYYCARGSGYDFDYWGQGTLVTVSS VL: AIQMTQSPSSLSASVGDRVTITCRASQDIRNALGWYQQKPGKAPKLLIYAASSLQSGVPSRFSGSASGTDFTLTISSLQPEDFAAYYCLQDYNYPYTFGQGTKLEIK has what T1/2 dimeric?
4.1
